# EXPERIMENTAL DETAILS: in vivo pharmacokinetic studies in mice (Example 1)
# Design: species or system mouse
# CONDITION INFO: male, CD-1, mouse, in vivo; intact prodrug; mice, 10 mg/kg eqv; read-out: Brain:Plasma ratio
QUANTITY: Kp

COMPOUND: COc1cc(-c2nc(-c3ccccc3)c(-c3cccs3)[nH]2)cc(OC)c1OC(=O)N1CCC(N2CCCCC2)CC1 [Compound P1]
QUANTITY: Kp
OBS VALUE: 0.6

====

# EXPERIMENTAL DETAILS: in vivo pharmacokinetic studies in mice (Example 1)
# Set-up: species or system mouse
# CONDITION INFO: male, CD-1, mouse, po; intact prodrug, plasma; mice, 10 mg/kg eqv

COMPOUND: CCCCCC(=O)Oc1c(OC)cc(-c2nc(-c3ccccc3)c(-c3cccs3)[nH]2)cc1OC [Compound P2]
Tmax: 15 min

====

# EXPERIMENTAL DETAILS: dog plasma pharmacokinetics
# Type: in vivo
# CONDITION INFO: IV 2 mg/kg
QUANTITY: Cmax (µM)

MOLECULE: COc1cc(-c2nc(-c3cccs3)c(-c3ccccc3)[nH]2)cc(OC)c1O [DPTIP, reference compound]
OBS VALUE: 5.5

====

# EXPERIMENTAL DETAILS: in vivo pharmacokinetic studies in mice (Example 1)
# Set-up: species or system mouse
# CONDITION INFO: male, CD-1, mouse, po; intact prodrug, plasma; mice, 10 mg/kg eqv; read-out: Cmax

COMPOUND: CCCCCC(=O)Oc1c(OC)cc(-c2nc(-c3ccccc3)c(-c3cccs3)[nH]2)cc1OC [Compound P2]
Cmax, nM: 51.1

====

# EXPERIMENTAL DETAILS: dog plasma pharmacokinetics
# Assay type: in vivo
# CONDITION INFO: IV 2 mg/kg

COMPOUND: COc1cc(-c2nc(-c3cccs3)c(-c3ccccc3)[nH]2)cc(OC)c1O [DPTIP, reference compound]
AUC, µM·h: 7.47

====

# EXPERIMENTAL DETAILS: in vivo pharmacokinetic studies in mice (Example 1)
# Parameters: species or system mouse
# CONDITION INFO: male, CD-1, mouse, in vivo, po, 10 mg/kg, intact prodrug, plasma; mice, 10 mg/kg eqv

COMPOUND: COc1cc(-c2nc(-c3ccccc3)c(-c3cccs3)[nH]2)cc(OC)c1OC(=O)N1CCC(N2CCCCC2)CC1 [Compound P1]
UNIT OF MEASURE: h
MRT: 3.39

====

# EXPERIMENTAL DETAILS: in vivo pharmacokinetic studies in mice (Example 1)
# Set-up: species or system mouse
# CONDITION INFO: male, CD-1, mouse, po; intact prodrug, brain; mice, 10 mg/kg eqv

COMPOUND: CCCCCC(=O)Oc1c(OC)cc(-c2nc(-c3ccccc3)c(-c3cccs3)[nH]2)cc1OC [Compound P2]
Tmax, min: 15

====

# EXPERIMENTAL DETAILS: solubility of P18 in water and in Soluplus®/Labrasol® micelle formulation
# Assay type: physicochemical
# CONDITION INFO: Soluplus micelles in water, aqueous with cosolvent or surfactant or cyclodextrin; solid dispersion in Soluplus®, hydrated with water; read-out: solubility in micelle formulation

COMPOUND: CCC1CC(N2CCCCC2)CC(CC)N1C(=O)Oc1c(OC)cc(-c2nc(-c3ccccc3)c(-c3cccs3)[nH]2)cc1OC (stereo not shown) [Compound P18]
UNIT OF MEASURE: µg/mL
solubility: 1700

====

# EXPERIMENTAL DETAILS: in vitro stability in CES1−/− mouse liver homogenates
# Assay type: in vitro ADME
# CONDITION INFO: CES1−/− mouse liver homogenate, 10 μM, 37° C.
# note: exactly 80% is not below, so it is No; use Yes for Stability in mouse (% remaining at 1h) Mean + Std Error, Liver strictly under it

MOLECULE: COc1cc(-c2nc(-c3ccccc3)c(-c3cccs3)[nH]2)cc(OC)c1OC(=O)N1CCC(N2CCCCC2)CC1 [Compound P1]
ASSIGNED CATEGORY: No

MOLECULE: COc1cc(-c2nc(-c3ccccc3)c(-c3cccs3)[nH]2)cc(OC)c1OC(=O)N(C)C
ASSIGNED CATEGORY: No

MOLECULE: CCCCCNC(=O)Oc1c(OC)cc(-c2nc(-c3ccccc3)c(-c3cccs3)[nH]2)cc1OC
ASSIGNED CATEGORY: No

MOLECULE: COc1cc(-c2nc(-c3ccccc3)c(-c3cccs3)[nH]2)cc(OC)c1OP(=O)(O)O
ASSIGNED CATEGORY: Yes

MOLECULE: COc1cc(-c2nc(-c3ccccc3)c(-c3cccs3)[nH]2)cc(OC)c1OC(=O)C1=CN(C)C=CC1
ASSIGNED CATEGORY: Yes

MOLECULE: CCCCCN(C)C(=O)Oc1c(OC)cc(-c2nc(-c3ccccc3)c(-c3cccs3)[nH]2)cc1OC
ASSIGNED CATEGORY: No

MOLECULE: CCC1CCCC(CC)N1C(=O)Oc1c(OC)cc(-c2nc(-c3ccccc3)c(-c3cccs3)[nH]2)cc1OC (stereo not shown)
ASSIGNED CATEGORY: Yes

MOLECULE: COc1cc(-c2nc(-c3ccccc3)c(-c3cccs3)[nH]2)cc(OC)c1OCOP(=O)(O)O
ASSIGNED CATEGORY: Yes

MOLECULE: COc1cc(-c2nc(-c3cccs3)c(-c3ccccc3)[nH]2)cc(OC)c1O [DPTIP, reference compound]
ASSIGNED CATEGORY: No

MOLECULE: CCCCCCCNC(=O)Oc1c(OC)cc(-c2nc(-c3ccccc3)c(-c3cccs3)[nH]2)cc1OC
ASSIGNED CATEGORY: No

MOLECULE: CCCN(CCC)C(=O)Oc1c(OC)cc(-c2nc(-c3ccccc3)c(-c3cccs3)[nH]2)cc1OC
ASSIGNED CATEGORY: Yes

MOLECULE: CCC1CC(N2CCCCC2)CC(CC)N1C(=O)Oc1c(OC)cc(-c2nc(-c3ccccc3)c(-c3cccs3)[nH]2)cc1OC (stereo not shown)
ASSIGNED CATEGORY: No

====

# EXPERIMENTAL DETAILS: in vivo pharmacokinetic studies in mice (Example 1)
# Design: species or system mouse
# CONDITION INFO: male, CD-1, mouse, in vivo, po, 10 mg/kg, intact prodrug, plasma; mice, 10 mg/kg eqv; read-out: Cmax

COMPOUND: COc1cc(-c2nc(-c3ccccc3)c(-c3cccs3)[nH]2)cc(OC)c1OC(=O)N1CCC(N2CCCCC2)CC1 [Compound P1]
Cmax: 546 nM

====

# EXPERIMENTAL DETAILS: in vivo pharmacokinetic studies in mice (Example 1)
# Parameters: species or system mouse
# CONDITION INFO: male, CD-1, mouse, po; intact prodrug, brain; mice, 10 mg/kg eqv

COMPOUND: CCCCCC(=O)Oc1c(OC)cc(-c2nc(-c3ccccc3)c(-c3cccs3)[nH]2)cc1OC [Compound P2]
AUC [nM·h]: 1.66

====

# EXPERIMENTAL DETAILS: in vivo pharmacokinetic studies in mice (Example 1)
# Parameters: species or system mouse
# CONDITION INFO: male, CD-1, mouse, in vivo, po, 10 mg/kg, intact prodrug, brain; mice, 10 mg/kg eqv
QUANTITY: MRT (h)

COMPOUND: COc1cc(-c2nc(-c3ccccc3)c(-c3cccs3)[nH]2)cc(OC)c1OC(=O)N1CCC(N2CCCCC2)CC1 [Compound P1]
QUANTITY: MRT
OBS VALUE: 2.12

====

# EXPERIMENTAL DETAILS: in vitro stability in CES1−/− mouse plasma
# Type: in vitro ADME
# CONDITION INFO: CES1−/− mouse plasma, 10 μM, 37° C.
# Procedure: All synthesized prodrugs were next screened for in vitro stability in carboxylesterase 1 knockout (CES1^−/−) mouse plasma, as well as CES1^−/− mouse brain and liver homogenates (Table 2-1). We have previously reported that CES1^−/− mouse model recapitulates human prodrug metabolism. Tenora et al., 2019. Zimmermann et al., 2018. […] Quantification of the prodrugs were performed in the full-scan mode (from m/z 50 to 1600) by comparing t=0 samples with t=60 min samples.
QUANTITY: Stability in mouse (% remaining at 1h) Mean + Std Error, Plasma (%)

COMPOUND: CCCN(CCC)C(=O)Oc1c(OC)cc(-c2nc(-c3ccccc3)c(-c3cccs3)[nH]2)cc1OC
OBS VALUE: 99
//
COMPOUND: COc1cc(-c2nc(-c3ccccc3)c(-c3cccs3)[nH]2)cc(OC)c1OC(=O)N1CCC(N2CCCCC2)CC1 [Compound P1]
OBS VALUE: 90
//
COMPOUND: CCCCCN(C)C(=O)Oc1c(OC)cc(-c2nc(-c3ccccc3)c(-c3cccs3)[nH]2)cc1OC
OBS VALUE: 50

The values you see were collected from patent US20240287108A1.
